# Test system: LXRb:RXRa (NR concentration 270 nM, RXRa partner concentration 90 nM)
# assayMethodText: PBM binding z-score (relative to random genomic background probes); higher = stronger binding; sequences stand for … in GC…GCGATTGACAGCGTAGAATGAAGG
Each entry gets -1 if its PBM binding z-score stays under 2, and 1 if its PBM binding z-score is 2 or above.

>>> print(df.to_string())
                      sequencecontent  labelclass
0  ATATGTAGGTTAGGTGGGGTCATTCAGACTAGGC           1
1  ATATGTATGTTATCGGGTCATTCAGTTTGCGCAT           1
2  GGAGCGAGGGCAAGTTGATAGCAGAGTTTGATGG          -1
3  AGAATGAGGTTATACGTAGATCAGGGTAGAAAGT          -1
4  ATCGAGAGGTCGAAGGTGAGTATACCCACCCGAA          -1
5  CAAACTAGGTCAAGAGGTCAAAGCCCGCTTCCCG           1

Data request: API: above_or_equal(metric=PBM binding z-score, cutoff=2) for item TCTTGTAGATCAAGCAGGTTAAAAAAGCCTGAGT
Data returned: -1

Data request: API: above_or_equal(metric=PBM binding z-score, cutoff=2) for item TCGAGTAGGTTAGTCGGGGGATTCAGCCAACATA
Data returned: 1

Data request: API: above_or_equal(metric=PBM binding z-score, cutoff=2) for item TCTTGTAGATCAGCAGGTTTAGAAAGCTGGCCAA
Data returned: -1

Data request: API: above_or_equal(metric=PBM binding z-score, cutoff=2) for item CGTCAAAGTTCAACTAAGGTAACGTAGAGCACGC
Data returned: 1

----------
# System: VDR:RXRa (NR concentration 270 nM, RXRa partner concentration 90 nM)
# assayMethodText: PBM binding z-score (relative to random genomic background probes); higher = stronger binding; sequences stand for … in GC…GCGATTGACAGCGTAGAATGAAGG
PBM binding z-score overview
Please state the value as a number alone, without comment.

>>> df
                      sequencecontent                                measuredon  recordednumber
0  CCAGACATGTGAAAGGTAACTCAGTCTGGTACGC  VDR:RXRa (NR concentration 270 nM, RXRa partner concentration 90 nM)           0.207

Lab note: next sequence to report on.
# sequence ATCTCTAGGTACAGATAGTTCAGTGAATGCAAAT ; its PBM binding z-score = 1.18

----------
# Tested on: PPARg:RXRa IVT, anti-PPARg (NR concentration 270 nM, RXRa partner concentration 90 nM)
# assayMethodText: PBM binding z-score (relative to random genomic background probes); higher = stronger binding; sequences stand for … in GC…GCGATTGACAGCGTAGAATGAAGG
PBM binding z-score overview
Please state the value as a number alone, without comment.

Consider the worked cases shown below.
>>> print(df.to_string())
                      sequencecontent  recordednumber
0  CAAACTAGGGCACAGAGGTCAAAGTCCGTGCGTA            7.94
1  TCATAAAGGTAAATGCTAGGTGAAAGTCCGATCT            1.59

Entry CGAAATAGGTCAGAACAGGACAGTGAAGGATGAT under PPARg:RXRa IVT, anti-PPARg (NR concentration 270 nM, RXRa partner concentration 90 nM) had PBM binding z-score of 6.4

Entry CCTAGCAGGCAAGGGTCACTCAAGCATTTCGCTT under PPARg:RXRa IVT, anti-PPARg (NR concentration 270 nM, RXRa partner concentration 90 nM) had PBM binding z-score of 0.835
